Values were extracted from patent US20180291110A1.

- testedOn: T1, human transferrin receptor (recombinant, for surface plasmon resonance) (human, UniProt P02786 89-760)
- T1 construct: also called huTfR; human transferrin receptor-biotinylated
- assayComment: SPR 25C
I'd appreciate it if you could supply koff values for the items below.
One number for each entry, in s⁻¹.

2/99 VH7/VL10 (antibody, V domains shown) VH: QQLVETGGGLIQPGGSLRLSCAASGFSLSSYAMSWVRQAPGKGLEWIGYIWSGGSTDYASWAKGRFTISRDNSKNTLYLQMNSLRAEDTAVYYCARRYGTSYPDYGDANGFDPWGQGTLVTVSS VL: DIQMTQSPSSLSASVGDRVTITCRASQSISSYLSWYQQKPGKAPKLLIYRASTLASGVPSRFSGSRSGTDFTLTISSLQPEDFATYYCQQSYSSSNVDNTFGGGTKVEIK: 0.00264
2/99 VH5/VL4 (antibody, V domains shown) VH: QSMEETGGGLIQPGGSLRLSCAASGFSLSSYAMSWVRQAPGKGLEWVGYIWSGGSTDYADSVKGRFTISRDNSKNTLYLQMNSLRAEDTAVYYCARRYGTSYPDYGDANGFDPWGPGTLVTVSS VL: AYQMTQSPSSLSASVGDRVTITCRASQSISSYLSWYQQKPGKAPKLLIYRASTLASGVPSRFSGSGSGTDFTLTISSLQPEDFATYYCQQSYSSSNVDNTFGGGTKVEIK: 0.00238

Query binder follows.
Please give measured koff of the following entry: 2/99 VH5/VL12 (antibody, V domains shown) VH: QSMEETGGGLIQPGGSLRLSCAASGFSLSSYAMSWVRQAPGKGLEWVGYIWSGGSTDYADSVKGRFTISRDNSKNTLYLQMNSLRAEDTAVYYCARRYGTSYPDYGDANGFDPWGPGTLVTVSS VL: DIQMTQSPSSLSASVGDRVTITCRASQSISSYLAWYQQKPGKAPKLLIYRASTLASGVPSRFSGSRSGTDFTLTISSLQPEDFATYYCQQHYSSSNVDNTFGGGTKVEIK
0.001
